Where do these numbers come from? They come from paper PMC10299128.

- Measured target: mMC4R (Mus musculus)
- Sequence (P56450 whole entry): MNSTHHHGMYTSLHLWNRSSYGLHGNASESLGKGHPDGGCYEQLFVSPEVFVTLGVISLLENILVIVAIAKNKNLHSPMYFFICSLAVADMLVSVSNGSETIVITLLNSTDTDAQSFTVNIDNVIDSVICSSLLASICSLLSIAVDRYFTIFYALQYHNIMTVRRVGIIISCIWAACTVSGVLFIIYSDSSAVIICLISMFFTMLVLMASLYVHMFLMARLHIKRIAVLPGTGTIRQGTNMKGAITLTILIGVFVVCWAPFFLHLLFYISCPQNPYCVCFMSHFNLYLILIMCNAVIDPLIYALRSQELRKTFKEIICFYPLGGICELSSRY
- Experimental details: AlphaScreen cAMP agonist assay, HEK293 cells stably expressing mMC4R
- Test parameters: at 1 mM; not enough stimulation to determine EC50
Assay readout: mMC4R percent maximal stimulatory response (compared to NDP-MSH) (% @ 1 mM)
Write the number in % @ 1 mM without appending the unit.

CC(C)[C@@H]1CNC(=N)N1C[C@@H]1CCCN1C[C@@H](CC1CCCCC1)N1CCN(CC2CCC(C(C)(C)C)CC2)C1=N (some centres unmarked) [Compound 2718.027]	45
CC(C)C[C@@H]1CNC(=N)N1C[C@H]1CCCN1C[C@H](Cc1ccccc1)N1C[C@H]([C@@H](C)O)N(CC2CCC(C(C)(C)C)CC2)C1=N (some centres unmarked) [Compound 2718.041]	60
CC(O)C1CNC(=N)N1CC1CCC(C(C)(C)C)CC1 (centres unmarked) [Compound 2718.020]	55

Summary for this compound, CC(C)C[C@H]1CNC(=N)N1C[C@H]1CCCN1C[C@H](Cc1ccccc1)N1C[C@@H]([C@H](C)O)N(CC2CCC(C(C)(C)C)CC2)C1=N (some centres unmarked) [Compound 2718.044] : mMC4R percent maximal stimulatory response (compared to NDP-MSH) is 50

Summary for this compound, CC(C)C[C@H]1CNC(=N)N1C[C@@H]1CCCN1C[C@H](Cc1ccccc1)N1C[C@H]([C@@H](C)O)N(CC2CCC(C(C)(C)C)CC2)C1=N (some centres unmarked) [Compound 2718.042] : mMC4R percent maximal stimulatory response (compared to NDP-MSH) is 65
